// data source = patent US9700563B2

Record type: Ki measurement. Applies to: UniProtKB P41145
Sequence (P41145 whole entry): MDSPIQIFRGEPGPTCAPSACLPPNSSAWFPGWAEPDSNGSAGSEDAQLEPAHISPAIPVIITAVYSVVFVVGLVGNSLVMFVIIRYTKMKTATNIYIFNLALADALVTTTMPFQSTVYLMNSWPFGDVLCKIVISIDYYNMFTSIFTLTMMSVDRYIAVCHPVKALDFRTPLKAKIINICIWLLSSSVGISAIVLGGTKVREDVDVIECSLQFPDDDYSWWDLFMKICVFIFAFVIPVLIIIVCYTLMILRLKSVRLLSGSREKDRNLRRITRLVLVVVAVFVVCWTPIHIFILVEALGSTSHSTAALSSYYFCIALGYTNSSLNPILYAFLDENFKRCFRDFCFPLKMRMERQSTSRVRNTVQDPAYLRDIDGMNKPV
Response body: numeric value in nM, unit text excluded.

In [3]: df
Out[3]:
                                   molecule     target_entity  readout_label  unit_info  number
0  CN(C)CCCC1(c2ccc(F)cc2)OCc2cc(C(=N)N3CCCC3)ccc21 (centres unmarked)  UniProtKB P41145             Ki         nM     249

Then this molecule:
In: Request body: readout Ki, system UniProtKB P41145, query CN(C)CCCC1(c2ccc(F)cc2)OCc2cc(C(=N)NCc3ccccc3)ccc21 (centres unmarked) . Return the value.
Out: 30
